Just for reference, patent US7560473B2 is where these values come from.

# System: rats anesthetized with pentobarbital sodium
# Protocol Text: Effects on blood pressure, heart rate, cardiac contraction and dilation in rats anesthetized with pentobarbital sodium
# Type: in vivo, Wistar rats
# Set-up: unit not given here
# Stated Conditions: change after injection through femoral vein; '+' = increase, all others = decrease; mean, n = 3~5; doses mg/kg: 2, 8, 12: 10; 3-7, 9-11, 40-44: 5
Measurement Label: −dp/dtmax: the maximal rate of the decrease of left ventricular pressure
Lab note: record the figure alone, no unit after it.

CCC(C)N (centres unmarked) [compound 12]    129

// returns −dp/dtmax: the maximal rate of the decrease of left ventricular pressure for `CCCCNC(C)(C)C(C)C` with rats anesthetized with pentobarbital sodium; value = 276

// returns −dp/dtmax: the maximal rate of the decrease of left ventricular pressure for `CNC(C)(C)C(C)C` with rats anesthetized with pentobarbital sodium; value = 157

---

# Target Desc: UniProt:Q63563
Measurement Label: IC50

CCC(C)(C)N=C(NC#N)Nc1cccnc1 [P1075, reference compound]    9.1 nM

// returns IC50 for CC(N/C(=N\C#N)Nc1ccncc1)C(C)(C)C (stereo not shown) [pinacidil] with UniProt:Q63563; value = 200 nM

// returns IC50 for COc1ccc(Cl)cc1C(=O)NCCc1ccc(S(=O)(=O)NC(=O)NC2CCCCC2)cc1 [glibenclamide, reference compound] with UniProt:Q63563; value = 58900 nM

// returns IC50 for CC(C)NC(C)(C)C(C)C [compound 1] with UniProt:Q63563; value = 355 nM

---

# Target Desc: ATP-sensitive potassium channels in vascular smooth muscles (Rattus norvegicus)
# Construct: The aorta was cut into about 3-5 mm arterial rings and the vascular endothelium was scraped off; from tissue; host or cells: endothelium-removed aortic rings of male Wistar rats
# Sequence (Q63563 1-1545 isoform Q63563-2): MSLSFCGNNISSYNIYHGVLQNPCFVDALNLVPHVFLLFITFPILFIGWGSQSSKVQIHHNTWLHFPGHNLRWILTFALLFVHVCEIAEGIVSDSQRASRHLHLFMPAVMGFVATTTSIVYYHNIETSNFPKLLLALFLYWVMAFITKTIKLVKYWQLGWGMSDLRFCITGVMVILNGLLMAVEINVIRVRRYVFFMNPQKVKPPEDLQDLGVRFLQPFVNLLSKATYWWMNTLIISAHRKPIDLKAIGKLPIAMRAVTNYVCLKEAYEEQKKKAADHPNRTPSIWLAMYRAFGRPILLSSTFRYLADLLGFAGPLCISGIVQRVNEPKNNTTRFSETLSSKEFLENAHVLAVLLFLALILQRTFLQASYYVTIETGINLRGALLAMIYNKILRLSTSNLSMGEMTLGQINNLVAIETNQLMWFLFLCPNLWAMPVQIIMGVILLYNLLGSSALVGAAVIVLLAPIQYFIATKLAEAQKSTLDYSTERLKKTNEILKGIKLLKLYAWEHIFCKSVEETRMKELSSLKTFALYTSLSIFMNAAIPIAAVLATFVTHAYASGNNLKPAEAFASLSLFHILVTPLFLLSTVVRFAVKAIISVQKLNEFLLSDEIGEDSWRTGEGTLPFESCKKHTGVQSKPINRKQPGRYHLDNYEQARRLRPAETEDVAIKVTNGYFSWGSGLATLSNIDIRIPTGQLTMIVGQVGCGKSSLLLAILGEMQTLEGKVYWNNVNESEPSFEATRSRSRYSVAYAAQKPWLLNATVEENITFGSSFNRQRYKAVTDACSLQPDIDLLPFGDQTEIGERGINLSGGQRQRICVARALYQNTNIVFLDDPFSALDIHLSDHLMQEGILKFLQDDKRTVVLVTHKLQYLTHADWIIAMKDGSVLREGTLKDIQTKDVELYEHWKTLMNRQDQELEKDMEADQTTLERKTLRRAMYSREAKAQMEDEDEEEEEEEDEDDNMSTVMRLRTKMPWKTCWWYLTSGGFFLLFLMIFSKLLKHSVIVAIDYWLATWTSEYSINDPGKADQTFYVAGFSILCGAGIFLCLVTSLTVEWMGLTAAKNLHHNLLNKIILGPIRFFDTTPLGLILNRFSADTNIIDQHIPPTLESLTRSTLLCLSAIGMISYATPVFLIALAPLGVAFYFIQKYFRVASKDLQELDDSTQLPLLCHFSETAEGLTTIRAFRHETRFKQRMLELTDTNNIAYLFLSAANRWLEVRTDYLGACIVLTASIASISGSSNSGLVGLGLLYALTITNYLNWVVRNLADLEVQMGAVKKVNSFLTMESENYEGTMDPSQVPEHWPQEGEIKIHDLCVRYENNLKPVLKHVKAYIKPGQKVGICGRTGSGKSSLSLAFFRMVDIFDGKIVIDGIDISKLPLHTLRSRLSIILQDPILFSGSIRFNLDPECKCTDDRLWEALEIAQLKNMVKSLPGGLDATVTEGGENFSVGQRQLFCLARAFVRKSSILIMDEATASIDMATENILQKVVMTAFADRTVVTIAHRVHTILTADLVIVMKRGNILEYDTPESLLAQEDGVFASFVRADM
# Sequence (Q63664 whole entry partner): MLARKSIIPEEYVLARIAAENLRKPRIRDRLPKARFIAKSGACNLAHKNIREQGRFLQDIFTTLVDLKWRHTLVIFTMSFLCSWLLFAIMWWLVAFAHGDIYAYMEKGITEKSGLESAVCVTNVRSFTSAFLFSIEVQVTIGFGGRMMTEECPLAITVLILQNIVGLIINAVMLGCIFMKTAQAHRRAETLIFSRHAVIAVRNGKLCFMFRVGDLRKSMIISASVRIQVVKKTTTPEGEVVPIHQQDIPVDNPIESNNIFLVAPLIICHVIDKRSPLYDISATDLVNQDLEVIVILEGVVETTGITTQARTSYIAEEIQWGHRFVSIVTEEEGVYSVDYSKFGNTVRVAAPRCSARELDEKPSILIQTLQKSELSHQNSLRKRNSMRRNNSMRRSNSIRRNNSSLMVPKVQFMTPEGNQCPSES
# Protocol Text: Association and dissociation kinetics of [^3H]glibenclamide binding in aortic rings
# Parameters: species or system Wistar rat
# Stated Conditions: 25° C.; drug M: compound 1 10^−4, pinacidil 10^−4, ATP 10^−2, ADP 10^−3, UDP 5 × 10^−3, Ade 10^−3; control 0.72 ± 0.11
Measurement Label: Dissociation kinetics k2 of [^3H]glibenclamide binding

Nc1ncnc2c1ncn2[C@@H]1O[C@H](COP(=O)(O)OP(=O)(O)O)[C@@H](O)[C@H]1O    0.94 ± 0.10 ×10^2 nM^−1 · min^−1
CC(N/C(=N\C#N)Nc1ccncc1)C(C)(C)C (centres unmarked)    1.15 ± 0.27 ×10^2 nM^−1 · min^−1
CC(C)NC(C)(C)C(C)C    1.02 ± 0.14 ×10^2 nM^−1 · min^−1

Nc1ncnc2c1ncn2[C@@H]1O[C@H](COP(=O)(O)OP(=O)(O)OP(=O)(O)O)[C@@H](O)[C@H]1O [ATP, adenosine triphosphate] has a reported Dissociation kinetics k2 of [^3H]glibenclamide binding of 0.42 ± 0.14 ×10^2 nM^−1 · min^−1

`O=c1ccn([C@@H]2O[C@H](COP(=O)(O)OP(=O)(O)O)[C@@H](O)[C@H]2O)c(=O)[nH]1` has a reported Dissociation kinetics k2 of [^3H]glibenclamide binding of 0.80 ± 0.22 ×10^2 nM^−1 · min^−1

---

# System: spontaneously hypertensive rats
# Protocol Text: Acute antihypertensive effects in conscious spontaneously hypertensive rats
# Assay type: in vivo
# Stated Conditions: base value before administration; po mg/kg: compound 1 3, pinacidil 3, nifedipine 10, bisoprolol 60, captopril 40; means ± SD, 9-13 rats; in bpm (unit assumed)
Measurement Label: heart rates base value
Lab note: record the figure alone, no unit after it.

CC(C)NC(C)(C)C(C)C    419
C[C@H](CS)C(=O)N1CCC[C@H]1C(=O)O    350

CC(C)NCC(O)COc1ccc(COCCOC(C)C)cc1 (centres unmarked) has a reported heart rates base value of 355

`COC(=O)C1=C(C)NC(C)=C(C(=O)OC)C1c1ccccc1[N+](=O)[O-]` has a reported heart rates base value of 352

CC(N/C(=N\C#N)Nc1ccncc1)C(C)(C)C (centres unmarked) has a reported heart rates base value of 351
